The following compounds are shown together with reported melting point values.

Solved cases below.
For the compound O=C(Cn1cc(-c2ccccc2)nn1)N/N=C/c1cc(Cl)ccc1O [Compound 11f] , report melting point.
240 to 240.6 °C

For the compound O=C(Cn1cc(-c2ccccc2)nn1)N/N=C/c1ccc(Cl)cc1 [Compound 11a] , report melting point.
259 to 259.6 °C

For the compound COc1ccc(/C=N/NC(=O)Cn2cc(-c3cccc(NC(C)=O)c3)nn2)cc1OC [Compound 10j] , report melting point.
230 to 230.6 °C

***
For the compound CC(=O)Nc1cccc(-c2cn(CC(=O)N/N=C/c3ccc(O)cc3)nn2)c1 [Compound 10c] , report melting point.
260 to 260.8 °C

For the compound CC(=O)Nc1cccc(-c2cn(CC(=O)N/N=C/c3cc(Br)cc(Br)c3O)nn2)c1 [Compound 10g] , report melting point.
237 to 237.5 °C

For the compound COc1cc(/C=N/NC(=O)Cn2cc(-c3ccccc3)nn2)cc(OC)c1OC [Compound 11k] , report melting point.
233.5 to 233.8 °C
